# assay: Solubility of auxiliary solvent in water at 25° C.
# conditions: in 100 g of water at 25° C.
recorded_endpoint: Solubility of auxiliary solvent in water at 25° C. (g)
Record the value in g, omitting the unit from your answer.

Q: Fill in the blank: the reported Solubility of auxiliary solvent in water at 25° C. of CCOCCOC(C)=O [AS-5, 2-ethoxyethyl acetate] is ____.
Ans: 25

Q: Name the recorded Solubility of auxiliary solvent in water at 25° C. for CCOC(C)=O [AS-1, ethyl acetate] .
Ans: 8

Q: Using the record for CCOC(=O)CC [AS-7, ethyl propionate] , report its Solubility of auxiliary solvent in water at 25° C..
Ans: 2

Q: Please give the measured Solubility of auxiliary solvent in water at 25° C. for this compound: CCCOC(C)=O [AS-2, propyl acetate]
Ans: 2

Q: Could you share which Solubility of auxiliary solvent in water at 25° C. value was measured for CCCCOC(C)=O [AS-6, butyl acetate] ?
Ans: 2

Q: Quick one: Solubility of auxiliary solvent in water at 25° C. of "O=C1CCCCC1" ?
Ans: 15

Q: Name the recorded Solubility of auxiliary solvent in water at 25° C. for CCCCOCCOCCOC(C)=O [AS-10, 2-(2-n-butoxyethoxy)ethyl acetate] .
Ans: 2
